Let's look at some compounds and their measured melting point.

COc1cccc(/C=N\NC(=O)CC2=C(C)/C(=C/c3ccc([S+](C)[O-])cc3)c3ccc(F)cc32)c1OC (stereo not drawn) = 203 to 205 °C
COc1cc(OC)c(OC)cc1/C=N\NC(=O)CC1=C(C)/C(=C/c2ccc([S+](C)[O-])cc2)c2ccc(F)cc21 (stereo not drawn) = 233 to 235 °C

Now for another entry.
Prompt line: Fill blank: measured melting point of the compound COc1cc(OC)c(/C=N\NC(=O)CC2=C(C)/C(=C/c3ccc([S+](C)[O-])cc3)c3ccc(F)cc32)c(OC)c1 (stereo not drawn) is ____.
Response line: 193 to 195 °C
